Biological target: GB1-SRSF1ΔRS (UniProt Q07955 1-197, del198-248)
Sequence (Q07955 1-197, stated change not applied): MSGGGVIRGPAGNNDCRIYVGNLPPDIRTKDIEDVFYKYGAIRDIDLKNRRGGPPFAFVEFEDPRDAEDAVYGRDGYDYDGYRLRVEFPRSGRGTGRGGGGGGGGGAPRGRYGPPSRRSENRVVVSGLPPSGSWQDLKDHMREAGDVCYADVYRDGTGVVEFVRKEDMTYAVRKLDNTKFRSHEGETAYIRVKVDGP
Experiment: ITC; 27 C; NMR buffer with TCEP; NMR/ITC: 10 mM NaPO4 pH 7.0, 50 mM L-Arg, 50 mM L-Glu, 5 mM DTT (TCEP for ITC); NMR 313 K (FUS 30 C), ITC 27 C; single-molecule: 50% nuclear extract, 3.2 mM MgCl2, 50 mM K-glutamate, 20 mM HEPES pH 7.5, 1.5 mM ATP, 30 C
Details: protein: recombinant; hairpin
readout_label: Kd (µM)

{"binder": "GCGAUUUCCCCAAAUGUGGGAAACUCGC (structured_RNA) [U1 snRNA stem-loop 3 (SL3) wild type]", "readout_label": "Kd", "assay_result": 10.9}

Origin of values: paper PMC8724738
